// reported T/C for each item listed
# System: P388 leukemia ip, CD2F1 mice, survival T/C
# experimental-details: NCI In Vivo Anticancer Drug Screen. Data for tumor model P388 Leukemia (intraperitoneal) in CD2F1 (CDF1) mice
# conditions-used: endpoint: median survival time; dose: 200.0 mg/kg/injection; schedule: Q01DX009 (ip); vehicle: Klucel (hydroxypropylcellulose) (HPC); higher = longer survival
Toxic doses and inconclusive results are not listed.

- Cc1ccc(S(=O)(=O)N(C)C2c3ccccc3Oc3ccccc32)cc1: 92 % of control
- Clc1ccc(CN2Cc3ccc4cccnc4c3OC2c2ccccn2)cc1Cl (stereo unspecified): 101 % of control
- C=C1CC/C=C(\C)CCC2C1CC2(C)C (stereo unspecified): 113 % of control
- CC(=O)OC1=NC(C)c2c1cc(OC(C)=O)nc2OC(C)=O (stereo unspecified): 102 % of control

Which T/C reading was recorded for the molecule CS1(=O)=N/C(=N\C(=O)Nc2ccccc2)c2ccccc21 (stereo unspecified) ?
102 % of control

What would you report for COc1ccc(-c2coc3cc(O)cc(O)c3c2=O)cc1 ?
104 % of control

Could you do the same for COc1cc(-c2cc(C(=O)O)c3cc4ccccc4cc3n2)cc(OC)c1OC , please?
104 % of control

Also O=C1C(c2ccccc2)=C(c2ccccc2)C(=O)N1c1ccccn1 , if possible.
103 % of control

Now the same for O=c1[nH]c2cc(Cl)ccc2c(=O)o1
103 % of control

Same again, this time with CCOC(=O)c1cc(OC(C)=O)c2c(ccc3ccccc32)c1C
90 % of control

* * *

Measured T/C, listed per entry.
# Test system: P388 leukemia ip, CD2F1 mice, survival T/C
# experimental-details: NCI In Vivo Anticancer Drug Screen. Data for tumor model P388 Leukemia (intraperitoneal) in CD2F1 (CDF1) mice
# conditions-used: endpoint: median survival time; dose: 120.0 mg/kg/injection; schedule: Q01DX005 (ip); vehicle: Klucel (hydroxypropylcellulose) (HPC); higher = longer survival
Inconclusive results and toxic doses are left out.

• CN1C=C([N+](=O)[O-])C(N2CCOCC2)C1N1CCOCC1 (stereo not drawn) = 114 % of control
• COC(=O)/C(=C/c1ccccc1)NC(C)=O = 101 % of control
• COc1cc(/C=C/C(C)=N/NC(N)=O)cc(OC)c1OC = 103 % of control
• CCCCNC=C1C(=O)Nc2ccccc2NC1=O = 92 % of control

Entry CN(CN(C)N=Nc1ccc(Br)cc1)CN(C)N=Nc1ccc(Br)cc1 : reported T/C = ?
92 % of control

What about this compound? CC(=O)C1CCC2=C(C1)C(=O)c1cc3c(cc1C2=O)C1(c2ccccc2)OC3(c2ccccc2)C2C(=O)N(c3ccccc3)C(=O)C21 (stereo not drawn)
88 % of control

Do the same for CNC(=O)C(O)c1c(-c2ccccc2)c(-c2ccccc2)c2n1CCC2 (stereo not drawn) please
89 % of control

Try the compound N#Cc1nn(C(N)=O)c(N)c1C#N
105 % of control

* * *

# Test system: P388 leukemia ip, CD2F1 mice, survival T/C
# experimental-details: NCI In Vivo Anticancer Drug Screen. Data for tumor model P388 Leukemia (intraperitoneal) in CD2F1 (CDF1) mice
# conditions-used: endpoint: median survival time; dose: 100.0 mg/kg/injection; schedule: Q01DX005 (ip); vehicle: Klucel (hydroxypropylcellulose) (HPC); higher = longer survival
Toxic doses and inconclusive results are not listed. Peptide text beside a SMILES is read from it. * marks the point of attachment. Cbz = O=C(OCc1ccccc1)*; OBn = c1ccc(CO*)cc1
List of T/C values.

Record excerpt, results attached:
- Nc1ncnc2c1ncn2CC(O)CCl (stereo unspecified): 99 % of control
- COc1cc(/C=C2\SC(=S)N(c3ccc(Cl)c(Cl)c3)C2=O)ccc1O: 86 % of control
- Nc1cc2nc3ccccc3oc-2cc1=O: 101 % of control

Given CC(C)C(NC(=O)C(Cl)Cl)C(=O)O (stereo unspecified) , state its recorded T/C.
94 % of control

What would you report for O=C(NC(CO)C(=O)N1CCCC1C(=O)OCc1ccccc1)OCc1ccccc1 (stereo not drawn) (Cbz-Ser-Pro-OBn; configuration not given here) ?
93 % of control

Another compound to look at: CC(OC(=O)C1C2C=CC(C2)C1C(=O)O)c1cccnc1 (stereo unspecified)
100 % of control

* * *

# Tested on: P388 leukemia ip, CD2F1 mice, survival T/C
# experimental-details: NCI In Vivo Anticancer Drug Screen. Data for tumor model P388 Leukemia (intraperitoneal) in CD2F1 (CDF1) mice
# conditions-used: endpoint: median survival time; dose: 60.0 mg/kg/injection; schedule: Q01DX005 (ip); vehicle: saline; higher = longer survival
Inconclusive results and toxic doses are left out.
Recorded T/C for the following compounds

* O=C(OCCO)c1ccccc1-c1c2cc3cc(Br)c(O)c(Br)c3oc-2c(Br)c(=O)c1Br | 100 % of control
* CN(C)CC#CCCCS(=O)(=O)c1ccccc1 | 97 % of control
* CNC(=S)NCOCCOC(C)=O | 98 % of control
* Nc1nc(-c2cc(-c3ccco3)nc(N)n2)cc(-c2ccco2)n1 | 103 % of control
* O=C/C=C/N=c1ccn(O)cc1 | 105 % of control
* Cc1cc(C#N)c[n+](C)c1 | 108 % of control

Any idea what its T/C is? The compound is N=C1N=Nc2nc(C3(c4nc5n(c4O)C(=N)N=N5)Cc4ccccc4C3=O)c(O)n21 (centres undefined)
96 % of control

Can you check COc1cc(C(=O)CC2=NC3NN(c4ccccc4)C(=O)C3=C2CC(=O)c2ccc(O)c(OC)c2)ccc1O (centres undefined) next?
100 % of control

Check CCN(CC)C(=O)CC(c1ccccc1)N(C)C (centres undefined) too.
98 % of control

* * *

# Test system: P388 leukemia ip, CD2F1 mice, survival T/C
# experimental-details: NCI In Vivo Anticancer Drug Screen. Data for tumor model P388 Leukemia (intraperitoneal) in CD2F1 (CDF1) mice
# conditions-used: endpoint: median survival time; dose: 200.0 mg/kg/injection; schedule: Q01DX009 (ip); vehicle: Klucel (hydroxypropylcellulose) (HPC); higher = longer survival
Inconclusive results and toxic doses are left out.
parameter: T/C

Examples with their reported T/C follow.
* CC(=O)NCCSC(NC(=O)Cc1ccccc1)C(=O)O (configuration not stated) | 100 % of control
* CC(C)(C)N=C(CCN1CCN(CCC(=NC(C)(C)C)Nc2ccc([N+](=O)[O-])cc2)CC1)Nc1ccc([N+](=O)[O-])cc1 | 93 % of control
* O=c1c2cc(Cl)ccc2nc2n1OCC2 | 104 % of control
* O=C(Nc1ccc(S(=O)(=O)F)cc1)c1ccc2ccccc2c1O | 91 % of control
* CCO/C=N/c1c(C#N)cnn1C | 106 % of control
* S=C(NCCCCCCNC(=S)Nc1ccc2ccccc2n1)Nc1ccc2ccccc2n1 | 91 % of control

Next, consider the following compound.
Quick check: T/C of O=c1oc(-c2cccc(C(Cl)Cl)c2)ns1 ?
107 % of control

* * *

Each entry below lists one item and its recorded T/C value.
# Tested on: P388 leukemia ip, CD2F1 mice, survival T/C
# experimental-details: NCI In Vivo Anticancer Drug Screen. Data for tumor model P388 Leukemia (intraperitoneal) in CD2F1 (CDF1) mice
# conditions-used: endpoint: median survival time; dose: 400.0 mg/kg/injection; schedule: Q04DX003 (ip); vehicle: Klucel (hydroxypropylcellulose) (HPC); higher = longer survival
Toxic doses and inconclusive results are not listed.

Could you tell me which T/C is on file for Cc1cc(C(=O)c2ccccc2)on1 ?
100 % of control

Query CCCn1c2ccccc2c2ccccc21 next
100 % of control

Now consider CN(C)C(=O)C1OC1(C)c1ccccc1 (configuration not stated) .
117 % of control

What do you get for CCn1c2ccccc2c2cc(N=Nc3ccc(N)c4ccccc34)ccc21 ?
94 % of control

Ok, now COc1ccc(CC(C(=O)NN)S(=O)(=O)NC(C)(C)C)cc1OC (configuration not stated)
95 % of control

* * *

Listing: T/C of selected molecules
# Tested on: P388 leukemia ip, CD2F1 mice, survival T/C
# experimental-details: NCI In Vivo Anticancer Drug Screen. Data for tumor model P388 Leukemia (intraperitoneal) in CD2F1 (CDF1) mice
# conditions-used: endpoint: median survival time; dose: 100.0 mg/kg/injection; schedule: Q01DX009 (ip); vehicle: saline; higher = longer survival
# Procedure: The antitumor activity of compounds was measured in mice bearing transplantable tumors. Survival or tumor size were measured and the results are expressed as the measurement made in the treated group (T) divided by the measurement made in the vehicle treated control group (C). The tumor model used in this assay is P388 Leukemia (intraperitoneal) in CD2F1 (CDF1) mice
Toxic doses and inconclusive results are not listed.

Solved entries:
- COc1ccc(CSC(=S)Nc2cccc(S(F)(F)(F)(F)F)c2)cc1: 116 % of control
- Cc1cccc(Oc2ccc(C(F)(F)F)cc2[N+](=O)[O-])c1C: 99 % of control
- CCOC(=O)CCC(NC(=O)OCCNCCCl)C(=O)OCC (stereo unspecified): 86 % of control
- CCC(=O)NC(Cc1ccc(F)cc1)C(=O)O (stereo unspecified): 88 % of control
- CC(=O)CC(C)O (stereo unspecified): 89 % of control

Kindly consider the entry below.
Reported T/C, molecule CC(=O)OC1C(=O)OC(=O)C(OC(C)=O)C1OC(C)=O (stereo unspecified) : ____
93 % of control
